- system_name: Kappa (κ) opioid receptors (KOR) (Homo sapiens, UniProt P41145)
- Construct: host or cells: unnamed cells grown in Ham's F-12 medium
- Sequence (P41145 whole entry): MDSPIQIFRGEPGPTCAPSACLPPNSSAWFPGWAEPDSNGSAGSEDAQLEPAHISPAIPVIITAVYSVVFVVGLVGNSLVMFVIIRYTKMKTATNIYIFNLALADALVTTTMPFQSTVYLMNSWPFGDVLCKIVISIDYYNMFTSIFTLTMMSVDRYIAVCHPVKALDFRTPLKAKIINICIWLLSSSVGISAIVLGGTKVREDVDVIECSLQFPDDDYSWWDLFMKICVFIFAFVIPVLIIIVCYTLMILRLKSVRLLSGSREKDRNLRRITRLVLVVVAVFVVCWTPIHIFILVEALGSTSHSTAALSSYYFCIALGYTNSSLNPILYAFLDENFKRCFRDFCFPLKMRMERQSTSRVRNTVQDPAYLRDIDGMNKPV
- assay: In vitro KOR agonistic activity, cAMP based functional assay
- Type: cell-based
- experimental_setup: cAMP based functional assay, forskolin stimulated; read-out: In-vitro EC50
*1 amine or outer side, *2 acyl side, *3 side chain or, on linkers, in order; H or OH if unused. Where a SMILES comes first, the peptide text is derived from it. [ ]: non-standard residue; d: D form. The star is where a group is joined. X9 = O=C(CN1CC2CC(C1)N2[*:1])[*:2]; X28 = O=C(O)CCN(CCC(=O)O)*; X4 = O=C(O)CN1CC2CC(C1)N2*; Ac6c = NC1(C(=O)O)CCCCC1
experimental_readout: pEC50
Just so you know, pEC50 here is -log10 of the concentration in molar units; reply with that number alone.

- compound: "CC(C)CC(NC(=O)C(Cc1ccccc1)NC(=O)C(N)Cc1ccccc1)C(=O)NC(CCCCN)C(=O)N1CC2CC(C1)N2 (centres unmarked) [Compound 51]"
  measured_result: 10.92
- compound: "CC(C)CC(NC(=O)C(Cc1ccccc1)NC(=O)C(N)Cc1ccccc1)C(=O)NC(CCCCN)C(=O)N1C2CC1CN(CC(=O)O)C2 (centres unmarked) [Compound 36]"
  measured_result: 10.82
- compound: "CC(C)CC(NC(=O)C(Cc1ccccc1)NC(=O)C(N)Cc1ccccc1)C(=O)NC(CCCCN)C(=O)N1CC2CN(CC(=O)O)CC2C1 (centres unmarked) [Compound 16]"
  measured_result: 11.40
- compound: "NCCCCC(NC(=O)C1(NC(=O)C(Cc2ccccc2)NC(=O)C(N)Cc2ccc(O)cc2)CCCCC1)C(=O)N1C2CC1CN(CC(=O)O)C2 (centres unmarked) [Compound 92] (H-YF[Ac6c]K-X4; configuration not given here)"
  measured_result: 10.74
- compound: "CC(C)CC(NC(=O)C(Cc1ccccc1)NC(=O)C(N)Cc1ccccc1)C(=O)NC(CCCCN)C(=O)N1C2CCC1CC(O)C2 (centres unmarked) [Compound 105]"
  measured_result: 11.70
- compound: "CCOC(=O)CN1CC2CC(C1)N2C(=O)C(CCCCN)NC(=O)C(CC(C)C)NC(=O)C(Cc1ccccc1)NC(=O)C(N)Cc1ccccc1 (centres unmarked) [Compound 35]"
  measured_result: 11.00
- compound: "CC(C)CC(NC(=O)C(Cc1ccccc1)NC(=O)C(N)Cc1ccccc1)C(=O)NC(CCCCN)C(=O)N1C2CC1CN(CC(=O)OCc1ccccc1)C2 (centres unmarked) [Compound 49]"
  measured_result: 10.80
- compound: "CC(C)CC(NC(=O)C(Cc1ccccc1)NC(=O)C(N)Cc1ccccc1)C(=O)NC(CCCCN)C(=O)N1C2CC1CN(C(=O)CN(CC(=O)O)CC(=O)O)C2 (centres unmarked) [Compound 102]"
  measured_result: 10.92
- compound: "CC(C)CC(NC(=O)C(Cc1ccccc1)NC(=O)C(N)Cc1ccccc1)C(=O)NC(CCCCN)C(=O)N1C2CC1CN(C)C2 (centres unmarked) [Compound 33]"
  measured_result: 11.05
- compound: "CC(C)CC(NC(=O)C(Cc1ccccc1)NC(=O)C(N)Cc1ccccc1)C(=O)NC(CCCCN)C(=O)N1C2CC1CN(CC(=O)N(CCC(=O)O)CCC(=O)O)C2 (centres unmarked) [Compound 100] (H-FFLK[X9]-X28; configuration not given here)"
  measured_result: 10.82

compound CC(C)CC(NC(=O)C(Cc1ccccc1)NC(=O)C(N)Cc1ccccc1)C(=O)NC(CCCCN)C(=O)N1C2CC1CN(CC(N)=O)C2 (centres unmarked) [Compound 37] , pEC50 observed: 10.08

compound CC(C)CC(NC(=O)C(Cc1ccccc1)NC(=O)C(N)Cc1ccccc1)C(=O)NC(CCCCN)C(=O)N1CC2CC(CN)CC2C1 (centres unmarked) [Compound 26] , pEC50 observed: 9.66

compound CC(C)CC(NC(=O)C(Cc1ccccc1)NC(=O)C(N)Cc1ccccc1)C(=O)NC(CCCCN)C(=O)N1C2CC1CN(Cc1ccccc1)C2 (centres unmarked) [Compound 34] , pEC50 observed: 10.06

compound CC(C)CC(NC(=O)C(Cc1ccccc1)NC(=O)C(N)Cc1ccccc1)C(=O)NC(CCCCN)C(=O)N1CC2=C(CN(CC(N)=O)C2)C1 (centres unmarked) [Compound 5] , pEC50 observed: 11.05
